measuredOn: T1, Antigen CD66c (CEACAM6; Sino Biological, Inc.) (UniProt P40199 35-320)
T1 construct: Bought antigen coated on the ELISA plate; construct not described; also called CD66c antigen; CECACAM6
T1 sequence (looked up): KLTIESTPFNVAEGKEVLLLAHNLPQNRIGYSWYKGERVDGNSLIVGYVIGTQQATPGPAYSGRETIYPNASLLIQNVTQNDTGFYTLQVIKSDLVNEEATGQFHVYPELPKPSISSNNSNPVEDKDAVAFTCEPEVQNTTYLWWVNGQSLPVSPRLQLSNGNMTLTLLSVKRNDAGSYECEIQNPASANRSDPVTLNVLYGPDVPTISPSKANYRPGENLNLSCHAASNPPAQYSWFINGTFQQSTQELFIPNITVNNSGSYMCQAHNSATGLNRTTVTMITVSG
assayRemarks: ELISA, coated CEACAM6 100 ng/well, antibody 4.57 ng/ml
readoutType: OD 450 nm (OD)
One number for each entry, in OD.

Example entries and their recorded answers appear below.
Please look up its OD 450 nm: recombinant humanized anti-CD66c antibody Protein ID 3058 (Vk8 + VH11) (antibody, human IgG1, V domains shown, also called hu 3058; #86) VH: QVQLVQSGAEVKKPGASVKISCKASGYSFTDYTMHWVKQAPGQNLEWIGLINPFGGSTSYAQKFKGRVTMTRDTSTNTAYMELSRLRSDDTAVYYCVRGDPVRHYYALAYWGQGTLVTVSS VL: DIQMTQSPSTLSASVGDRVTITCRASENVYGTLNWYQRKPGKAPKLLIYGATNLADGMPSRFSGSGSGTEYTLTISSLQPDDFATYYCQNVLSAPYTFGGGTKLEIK 0.74

Field entry: recombinant humanized anti-CD66c antibody Protein ID 2938 (Vk5 + VH7) (antibody, human IgG1, V domains shown, also called hu 2938) VH: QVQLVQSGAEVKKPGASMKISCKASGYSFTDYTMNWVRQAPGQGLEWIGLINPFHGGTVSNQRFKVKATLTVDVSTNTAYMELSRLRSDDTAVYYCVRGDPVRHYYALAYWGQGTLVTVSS VL: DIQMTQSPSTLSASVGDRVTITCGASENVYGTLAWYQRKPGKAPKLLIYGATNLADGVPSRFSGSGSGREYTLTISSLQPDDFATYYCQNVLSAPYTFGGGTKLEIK 0.65

Please state, for each entry, its recorded OD 450 nm.
1. recombinant humanized anti-CD66c antibody Protein ID 3019 (Vk7 + VH10) (antibody, human IgG1, V domains shown, also called hu 3019; #51) VH: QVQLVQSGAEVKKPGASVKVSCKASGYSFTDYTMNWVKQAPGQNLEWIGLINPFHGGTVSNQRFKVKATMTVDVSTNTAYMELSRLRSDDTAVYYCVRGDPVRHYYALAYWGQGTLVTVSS VL: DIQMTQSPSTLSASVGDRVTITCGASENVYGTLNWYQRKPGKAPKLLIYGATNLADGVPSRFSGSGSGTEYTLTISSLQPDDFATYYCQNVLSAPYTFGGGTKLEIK
2. recombinant humanized anti-CD66c antibody Protein ID 3043 (Vk8 + VH6) (antibody, human IgG1, V domains shown, also called hu 3043; #71) VH: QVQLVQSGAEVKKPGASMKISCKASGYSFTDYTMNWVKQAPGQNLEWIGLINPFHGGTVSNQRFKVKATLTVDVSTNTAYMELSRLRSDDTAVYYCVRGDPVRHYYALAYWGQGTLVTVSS VL: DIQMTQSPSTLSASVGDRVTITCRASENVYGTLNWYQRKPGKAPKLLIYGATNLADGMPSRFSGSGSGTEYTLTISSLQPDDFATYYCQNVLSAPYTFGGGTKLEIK

[1.32, 0.91]
